# assay.method.text: Dog PK study #2 (Compound A IV, HPBCD formulation)
# Assay type: in vivo, beagle dogs
# assay.setup: beagle, dog, plasma, iv, 1 mg/kg, IV 1 mg/kg, HPBCD formulation, 2 h; mean; read-out: Average plasma concentration

| compound | readout.unit | concentration at 2 h |
| --- | --- | --- |
| Cn1cc(-c2ccccc2)c(-c2cn(C)c(=O)c3[nH]c(-c4cnn(C(F)(F)F)c4)cc23)cc1=O [Compound A] | ng/mL | 232 |

###

# assay.method.text: Dog PK study #4 (Compound A PO daily 14 days, 1/3/10 mg/kg; toxicokinetics, platelet counts)
# Format: in vivo, beagle dogs
# assay.setup: beagle, dog, plasma, oral; after daily administration for 14 days, 1 mg/kg, Male, 0.5 h

| smiles | concentration at 0.5 h, ng/mL |
| --- | --- |
| Cn1cc(-c2ccccc2)c(-c2cn(C)c(=O)c3[nH]c(-c4cnn(C(F)(F)F)c4)cc23)cc1=O | 31.6 |

###

# assay.method.text: Dog PK study #4 (Compound A PO daily 14 days, 1/3/10 mg/kg; toxicokinetics, platelet counts)
# Type: in vivo, beagle dogs
# assay.setup: beagle, dog, plasma, oral; after daily administration for 14 days, 3 mg/kg, Female, 2 h

| smiles | concentration at 2 h / ng/mL |
| --- | --- |
| Cn1cc(-c2ccccc2)c(-c2cn(C)c(=O)c3[nH]c(-c4cnn(C(F)(F)F)c4)cc23)cc1=O | 320 |

###

# assay.method.text: CIA study: pharmacokinetics / plasma concentration after oral administration
# Format: in vivo, Lewis rats
# assay.setup: Lewis, rat, plasma, po, 3 mg/kg, oral 3 mg/kg, day 0, 2 h, individual test subjects; read-out: Plasma concentration

| compound | concentration at 2 h (ng/mL) |
| --- | --- |
| Cn1cc(-c2ccccc2)c(-c2cn(C)c(=O)c3[nH]c(-c4cnn(C(F)(F)F)c4)cc23)cc1=O [Compound A] | 109 |

###

# System: CXCL10
# assay.method.text: CXCL10 release from IFN-γ stimulated human PBMCs (ELISA)
# Type: cell-based
# assay.setup: Homo sapiens, PBMC, Average preliminary biomarker assay; read-out: CXCL10 IC50 Mean
pIC50: −log10 of the molar value.
metric: pIC50

| smiles | value |
| --- | --- |
| Cn1cc(-c2ccccc2)c(-c2cn(C)c(=O)c3[nH]c(-c4cnn(C(F)(F)F)c4)cc23)cc1=O | 6.00 |

###

# assay.method.text: Dog PK study #1 (Compound A IV and PO, propylene glycol formulation)
# Assay type: in vivo, beagle dogs
# assay.setup: beagle, dog, plasma, po, 5 mg/kg, oral 5 mg/kg; individual animals
metric: AUC

| smiles | metric | value |
| --- | --- | --- |
| Cn1cc(-c2ccccc2)c(-c2cn(C)c(=O)c3[nH]c(-c4cnn(C(F)(F)F)c4)cc23)cc1=O | AUC | 4520 ng·h/mL |

###

# assay.method.text: Dog PK study #4 (Compound A PO daily 14 days, 1/3/10 mg/kg; toxicokinetics, platelet counts)
# Format: in vivo, beagle dogs
# assay.setup: both sexes, beagle, dog, plasma, oral; after daily administration for 14 days, 1 mg/kg, Pooled Mean, 0.5 h
metric: concentration at 0.5 h (ng/mL)

| smiles | metric | readout.unit | value |
| --- | --- | --- | --- |
| Cn1cc(-c2ccccc2)c(-c2cn(C)c(=O)c3[nH]c(-c4cnn(C(F)(F)F)c4)cc23)cc1=O | concentration at 0.5 h | ng/mL | 29.7 |
